This listing pairs binders with measured pEC50.
- System: T1, mouse TEM8 on CHO-mTEM8 cells (mouse, UniProt Q9CZ52 31-562)
- T1 construct: also called murine TEM8
- T1 sequence (Q9CZ52 31-562): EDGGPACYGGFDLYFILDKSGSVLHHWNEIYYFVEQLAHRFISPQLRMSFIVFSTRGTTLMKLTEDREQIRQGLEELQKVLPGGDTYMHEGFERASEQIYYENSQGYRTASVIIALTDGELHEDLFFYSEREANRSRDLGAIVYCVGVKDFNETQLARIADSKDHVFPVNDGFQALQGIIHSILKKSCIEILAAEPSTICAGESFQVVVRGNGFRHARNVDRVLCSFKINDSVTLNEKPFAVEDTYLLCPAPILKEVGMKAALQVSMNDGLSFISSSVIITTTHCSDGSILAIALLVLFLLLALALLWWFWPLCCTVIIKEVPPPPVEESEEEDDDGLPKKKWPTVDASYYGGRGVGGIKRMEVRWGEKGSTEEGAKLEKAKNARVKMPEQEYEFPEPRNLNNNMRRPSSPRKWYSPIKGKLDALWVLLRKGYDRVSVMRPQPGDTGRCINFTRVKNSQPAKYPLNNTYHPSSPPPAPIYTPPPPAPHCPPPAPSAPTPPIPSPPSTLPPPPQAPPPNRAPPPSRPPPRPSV
- Assay protocol: FACS on CHO-mTEM8 cells
pEC50: −log10 of the molar value.

Binder	pEC50
7E3 (antibody, human IgG1, lambda, L234A L235A, V domains shown, Full IgG made in CHO cells, lambda constant region; also called TEM8-7E3) VH: QVQLVESGGGLVNPGGSLRLSCAVSGFTSSGFSINWVRQAPGKGLEWVSSISGIGDSIFYADSVKGRFTISRDNAKNLVFLQMNSVKAEDTAVYYCVRDKWGWGTYSLFDYWGQGTLVTVSS VL: QAVLTQPPSASGTPGQRVTISCSGSSSNIASNVVSWYQQLPGTAPKVLIYSNNRRPSGVPDRFSGSKSGASASLAISGLQSDDETHYYCAAWDDSLKGPVFGGGTQLTVLG	8.85
6A6Q (antibody, human IgG1, lambda, L234A L235A, V domains shown, Full IgG made in CHO cells, lambda constant region; Variant of 6A6 whose light chain glycosylation site NRS was mutated to QRS; also called TEM8-6A6Q) VH: EVQLVESGGGVVQPGGSLRLSCAASGFTFDDYAMHWVRQAPGKGLEWVSLISGDGGSTYYADSVKGRFTISRDNSKNSLYLQMNSLKASDTAMYYCARPRWGRYSSSWPFDYWGQGTLVTVSS VL: QSALTQPASVSGSPGQSITISCTGTSSDVGTYNYVSWYQQHPGKAPKLMIYDVTDRPSGISNRFSGSKSGNTASLTISGLQAEDEGNYYCSSYTSQRSWVFGGGTKLTVLG	8.94
3B3 (antibody, human IgG1, kappa, L234A L235A, V domains shown, Full IgG made in CHO cells, kappa constant region; also called TEM8-3B3) VH: EVQLVQSGGGLVKPGGSLRLSCAASGFTFSSYSMNWVRQAPGKGLEWVSSISSSSSYIYYADSVKGRFTISRDNAKNSLYLQMNSLRAEDTAVYYCARVRPPYGMDVWGQGTLVTVSS VL: NIQMTQSPSSVSASVGDTVTISCRASQGISNWLGWYQQRPGEAPKLLIYAASHLQSGVPSRFSGSGSGTDFVLTITSLQPEDFATYYCQQSNSFPLAFGGGTKLEIKR	8.67
11B7 (antibody, human IgG1, lambda, L234A L235A, V domains shown, Full IgG made in CHO cells, lambda constant region; also called TEM8-11B7) VH: QVQLVQSGGGVVQPGRPLRLSCAASGFNLGSYAMSWVRQAPGKGLEWVSAISGSGGSTYYADSVKGRFTISRDNSKNTLYLQMNSLRAEDTAVYYCAKILGPGNLNYYYYYGMDVWGQGTTVTVSS VL: SSELTQDPAVSVALGQTVRITCQGDSLRNSYASWYQQKPGQAPVLVIYGNNNRPSGIPDRVSGSRSGNTASLTITGAQAEDEADYYCNSRDSSGNHVVFGGGTELTVLG	8.92
